Cited source: PubChem BioAssay (NCI)

# Test system: SF-268 CNS
# experimental protocol: NCI tumour cell line growth inhibition, 48 h; in the data active means GI50 below about 0.43 µM; inactive means the rest
The reply should name one outcome from active, inactive

>>> assigned_category("C=C1C(=O)O[C@H]2[C@H]1CC/C(COC(=O)NCc1c[nH]c3ccc(F)cc13)=C\\CC[C@@]1(C)O[C@@H]21")
"inactive"
>>> assigned_category("CN(C)CCCn1c2c(c3cc4c(cc3c1=O)OCO4)C(=O)c1ccccc1-2")
"inactive"
>>> assigned_category("COc1ccc(-c2[nH]c3ccccc3c2/C=C(\\C#N)S(=O)(=O)c2ccccc2)cc1")
"inactive"
>>> assigned_category("O=C1c2ccccc2C(=O)c2c1cc1c(c2[N+](=O)[O-])OCO1")
"inactive"

Moving on to another compound below.
Just curious, what result did `c1ccc2c(CNCCN3CCNCC3)c3ccccc3c(CNCCN3CCNCC3)c2c1` get here? inactive

---

# System: SW-620 colon
# experimental protocol: NCI tumour cell line growth inhibition, 48 h
parameter: TGI

>>> experimental_value("CC1=NNC(=S)NCCCN2CCN(CCCNC(=S)NN=C(C)C=NNC(=S)NCCCN3CCN(CCCNC(=S)NN=C1)CC3)CC2")
"> 100 µM"
>>> experimental_value("Cc1cc2c(c(=O)o1)C1=S(SC(c3ccccc3)=C1)S2 (centres undefined)")
"> 100 µM"
>>> experimental_value("c1ccc2c(CNCCN3CCNCC3)c3ccccc3c(CNCCN3CCNCC3)c2c1")
"49.3 µM"
>>> experimental_value("CN(C)C(F)=PC(F)(F)F (centres undefined)")
"> 100 µM"
>>> experimental_value("O=C(O)CCCc1ccccc1")
"> 1000 µM"
>>> experimental_value("N#Cc1cc2c(cc1Cl)Sc1nnc(Nc3cccc4ccccc34)n1S2(=O)=O")
"12.3 µM"
>>> experimental_value("O=[N+]([O-])c1cc(Cc2cc([N+](=O)[O-])c3cccnc3c2O)c(O)c2ncccc12")
"> 67.9 µM"
>>> experimental_value("CCCCN(C)C(=O)C1=C(C)NC(C)=C(C(=O)N(C)CCCC)C1")
"> 100 µM"

Consider now this further molecule.
Quick check: TGI on SW-620 colon, item COc1cc(C(=O)C2CC3(CCC2(O)c2cc(OC)c(OC)c(OC)c2)CC(=O)Nc2ccccc2C3=O)cc(OC)c1OC (centres undefined) ? > 100 µM

---

# Tested on: UACC-257 melanoma
# experimental protocol: NCI tumour cell line growth inhibition, 48 h; in the data active = GI50 below about 0.43 µM; inactive = the rest
Outcome field: choose from active, inactive

Field: example entries. Status: answers known.
>>> assigned_category("COc1cc(-c2ncn(/C=C\\c3nnco3)n2)cc(C(F)(F)F)c1")
"active"
>>> assigned_category("S=C(NCc1ccc2c(c1)OCO2)N1CCN(c2ncnc3c2oc2ccccc23)CC1")
"inactive"
>>> assigned_category("COc1ccc(-c2c3c(N)c4c(nc3nc3c2c(C)nn3-c2ccccc2)CCCC4)cc1")
"inactive"
>>> assigned_category("Clc1ccc([I+]c2ccc(Cl)cc2Cl)c(Cl)c1")
"inactive"
>>> assigned_category("CC(=O)OCC(CC[CH2][Sn]([Cl])([Cl])[c]1ccccc1)OC(C)=O (stereo not given)")
"inactive"
>>> assigned_category("O=S(=O)(O)c1ccc2cc3nn(-c4ccc(/C=C/c5ccc(-n6nc7cc8ccc(S(=O)(=O)O)cc8cc7n6)cc5S(=O)(=O)O)c(S(=O)(=O)O)c4)nc3cc2c1")
"inactive"
>>> assigned_category("COc1cc(/C=C/C(=O)O[C@H]2[C@H](O[C@@H]3O[C@@H](C)[C@H](O)[C@@H](O)[C@H]3O)[C@@H](O)[C@H](OCCc3ccc(O)c(O)c3)O[C@@H]2COC2OCC(O)(CO)C2O)ccc1O (stereo not given in full)")
"inactive"
>>> assigned_category("COc1ccc(-c2[nH]c3ccccc3c2/C=C(\\C#N)S(=O)(=O)c2ccccc2)cc1")
"inactive"
>>> assigned_category("N#CC1C(N)=NNC12Nc1ccccc1S2 (stereo not given)")
"inactive"

Turning now to a further compound:
Can you look up the reported call for `COC(=O)c1cc([N+](=O)[O-])cc([N+](=O)[O-])c1Cl` for me? inactive

---

# Tested on: HL-60(TB) leukemia
# experimental protocol: NCI tumour cell line growth inhibition, 48 h
Measured TGI accompanies every entry in the list below.

# example entries with known answers
>>> experimental_value("c1n[nH]cc1C12C3C4C5C3C1C5C42 (centres undefined)")
"> 100 µM"
>>> experimental_value("c1ccc(C2=C(c3ccccc3)Sc3nnc(CCCCCCCCc4nnc5n4NC(c4ccccc4)=C(c4ccccc4)S5)n3N2)cc1")
"37.2 µM"
>>> experimental_value("CC(C)=CCC/C(C)=C/CCC1(C)C=Cc2c(c3ccccc3oc2=O)O1 (centres undefined)")
"> 75.8 µM"
>>> experimental_value("O=S(=O)(NCCCNc1cc(-c2cn(-c3ccccc3)nc2-c2cccc(O)c2)ccn1)c1ccc(F)cc1")
"5.85 µM"

// query TGI value for entry O=C(c1c(O)cc(O)cc1O)C1Cc2ccccc21 (centres undefined) > 100 µM

Suppose we examine the molecule COc1ccc(-n2c(C)nc3ccc(NC4OC(CO)C(O)C(O)C4O)cc3c2=O)cc1 (centres undefined) ; what TGI value has been reported? > 100 µM

If you can, please state the reported TGI value of `CCOC(=O)/C=C/C1(CCOC(C)=O)CCCCC1` . > 10 µM

---

# Tested on: HOP-18 NSCLC
# experimental protocol: NCI tumour cell line growth inhibition, 48 h
Each entry below lists one item and its recorded TGI value.

Consider the worked cases shown below.
>>> experimental_value("c1ccc2cc3c(cc2c1)OP1(Oc2cccc4cccnc24)(O3)Oc2cc3ccccc3cc2O1")
"56.3 µM"
>>> experimental_value("NC(CCCCNCc1ccccc1O)C(=O)O (configuration not stated)")
"> 100 µM"

Need TGI of N#CNC1=NC(N)C(c2nc3ccccc3[nH]2)=C(CCCC(=O)Nc2cccc([N+](=O)[O-])c2)N1 (configuration not stated) , thanks. > 100 µM

Entry under review: CCOC(=O)C(CCCNC(=O)OC(C)(C)C)N(Cc1ccc(OC)cc1OC)C(=O)CC(=O)CP(=O)(OCC)OCC (configuration not stated) . Reported TGI? > 100 µM

Using the record for O=C(c1c(O)cc(O)cc1O)C1Cc2ccccc21 (configuration not stated) , report its TGI. > 100 µM

Which TGI is listed for CC(C)=CC(=O)OC1C2C(C)=CC(O)C(O)C2(C)C2C3(O)OCC24C(CC(=O)OC14)C(C)C3O (configuration not stated) ? 7.58 µM

# TGI lookup, item `COc1cc(/C=C/C2=C(C#N)C(=O)OC2(C)C)ccc1O` > 100 µM

---

# System: A498 renal
# experimental protocol: NCI tumour cell line growth inhibition, 48 h
Catalogue of GI50 readings, one per entry.

Solved entries:
>>> experimental_value("c1ccc(C2CCCCC2)c(OCCCCCN2CCNCC2)c1")
"4540 nM"
>>> experimental_value("C=CCN(CC=C)C(=O)[C@H](CC)[C@@H]1CC[C@@H](C)[C@@H]([C@H](C)[C@@H](O)[C@@H](C)C(=O)[C@H](CC)C2O[C@]3(C=C[C@@H](O)[C@]4(CC[C@@](C)([C@H]5CC[C@](O)(CC)[C@H](C)O5)O4)O3)[C@H](C)C[C@@H]2C)O1 (stereo partly drawn)")
"2070 nM"
>>> experimental_value("COc1cc(C(=O)/C=C/c2c(C(F)(F)F)nc3ccccn23)cc(OC)c1OC")
"2400 nM"
>>> experimental_value("COc1ccc(-c2c3c(N)c4c(nc3nc3c2c(C)nn3-c2ccccc2)CCCC4)cc1")
"11900 nM"
>>> experimental_value("COc1ccc2c(c1)C(=O)c1c-2c(=O)n(CCCN(C)C)c2cc(OC)c(OC)cc12")
"15000 nM"

Please give the measured GI50 for this molecule: `Nc1nc2ccccc2c2c1S(=O)(=O)c1ccc(Cl)cc1C2=O` 2370 nM

So what's the measured GI50 for this one? CC(C)(C)c1cc(C(=O)O)c2c(c1)C(=O)OC2(c1ccccc1)c1ccccc1C(=O)O (stereo not drawn) > 100000 nM

Form field: reported GI50 of `O=C1/C(=C/c2ccccc2[N+](=O)[O-])COc2ccc(O)cc21` 1650 nM

---

Here, each record is paired with measured GI50 data.
# Test system: PC-3 prostate
# experimental protocol: NCI tumour cell line growth inhibition, 48 h

Worked cases, answers included:
>>> experimental_value("CC1CCN(CCOc2ccc(CNc3ccc4nc(CCC5CCCCC5)[nH]c4c3)cc2)CC1")
"1.44 µM"
>>> experimental_value("CC(C)N(Cc1ccc(F)cc1)c1ccc(CO)c(Cl)c1")
"11.4 µM"
>>> experimental_value("N#C/C(=C\\c1cc2ccc(N3CCC3)cc2oc1=O)C(=O)N(CC(=O)O)CC(=O)O")
"> 100 µM"
>>> experimental_value("CCN(Cc1ccc(F)cc1)c1ccc(CO)c(C(F)(F)F)c1")
"12.1 µM"
>>> experimental_value("C[C@@H](NC(=O)c1ccc(F)cc1)c1ccc2c(c1)CCN2C(=O)C1CCOCC1")
"> 100 µM"
>>> experimental_value("O=S(=O)(O)c1ccc2cc3nn(-c4ccc(/C=C/c5ccc(-n6nc7cc8ccc(S(=O)(=O)O)cc8cc7n6)cc5S(=O)(=O)O)c(S(=O)(=O)O)c4)nc3cc2c1")
"74.7 µM"

Form field: reported GI50 of `Nc1nc(-c2ccc(Cl)cc2)nc2c1sc(=S)n2-c1ccccc1` 17.3 µM

# query: GI50 of entry `COc1cc(C(=O)/C=C/c2c(C(F)(F)F)nc3ccccn23)cc(OC)c1OC` 3.8 µM

Please look up its GI50: `COc1ccc2c(c1)C(=O)c1c-2c(=O)n(CCCN(C)C)c2cc(OC)c(OC)cc12` 11.4 µM
